Assay: chemical genetic growth profiling, strain panel (AID 1159580);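 further: tested at 20 µM; growth read once vehicle control cultures reached saturation at 30 °C; 1 = growth at the plate median or of vehicle wells; lower values mean less growth of the strain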
Conditions: S. cerevisiae deletion strains, growth OD, locus YJL095W, strain BCK1, active compounds read low
Hit rate of the full screen: of about 5,500 compounds, about 2,000 (36%) were called active. Not shown: some 18% with an inconclusive outcome. The list shows a part of the results.
value_type: normalized growth
Please reply with the value in numeric form only.

Param item = `CN(C)c1nc(N)c(C(=O)N=C(N)N)nc1Cl` ; retrieve measured normalized growth. 0.997

---
Fill blank: measured normalized growth of the compound N#Cc1nn(-c2c(Cl)cc(C(F)(F)F)cc2Cl)c(N)c1S(=O)C(F)(F)F (centres undefined) is ____. 0.991

Consider next the compound CCC1OC(=O)[C@H](C)C(=O)[C@H](C)[C@@H](OC2O[C@H](C)C[C@H](N(C)C)[C@H]2O)[C@](C)(OC)C2(CCCn3cnc(-c4cccnc4)c3)C[C@@H](C)C(=O)[C@H](C)[C@H]3N(C2)C(=O)O[C@]13C (some centres undefined) in the same way. 1

// repeat for CO[C@@]1(NC(=O)C(C(=O)O)c2ccc(O)cc2)C(=O)N2C(C(=O)O)=C(CSc3nnnn3C)CO[C@@H]21 (some centres undefined) and report 1.01
